Field: IC50. Provide a value for each of the molecules that follow.
# system under test: recombinant human cIAP1-BIR3 protein (Homo sapiens)
# Construct: recombinant human cIAP1-BIR3 protein; purchased Reaction biology APT-11-370
# Sequence (Q13490 253-363 limits assumed): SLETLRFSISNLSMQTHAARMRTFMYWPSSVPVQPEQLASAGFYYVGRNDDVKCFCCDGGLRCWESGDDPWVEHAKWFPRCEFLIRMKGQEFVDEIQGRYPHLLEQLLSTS
# procedure summary: Recombinant human c-IAP1-BIR3 biochemical assay (HTRF, peptide displacement)
# details: 1.2 nM cIAP1-BIR3, 3 nM AbuRPF-K(5-Fam)-NH2 peptide, read-out: Protein binding IC50 (nM) c-IAP1
Kindly provide the numeric value in nM only, without the unit symbol.

Bench note: what IC50 did C[C@@H]1CN(CC(=O)N2c3cc(Cc4ccc(F)cc4)c(CO)nc3OC[C@@H]2C)[C@@H](CN2CCOCC23CC3)CN1 [Compound 50] show?
0.44

What would you report for C[C@@H]1CN(CC(=O)N2c3cc(Cc4ccc(F)cc4)c(C(=O)N4CC(O)C4)nc3OC[C@@H]2C)[C@@H](CN2[C@H](C)COC[C@H]2C)CN1 [Example 74] ?
0.25

What would you report for CC[C@@H]1COCCN1C[C@H]1CN[C@H](C)CN1CC(=O)N1c2cc(Cc3ccc(F)cc3)c(CO)nc2OC[C@@H]1C [Compound 51] ?
0.3

What would you report for C[C@@H]1CN(CC(=O)N2c3cc(Cc4ccc(F)cc4F)c(CO)nc3OC[C@@H]2C)[C@@H](CN2[C@H](C)COC[C@H]2C)CN1 [Example 60] ?
0.13

What would you report for CC(C)NC(=O)c1nc2c(cc1Cc1ccc(F)cc1)N(C(=O)CN1C[C@@H](C)NC[C@@H]1CN1[C@H](C)COC[C@H]1C)[C@@H](C)CO2 [Example 69] ?
0.16

What would you report for C[C@@H]1CN(CC(=O)N2CCOc3nc(O)c(Cc4ccc(F)cc4)cc32)[C@@H](CN2CCOC[C@H]2C)CN1 [Compound 9] ?
0.85
